system.name: Biotinylated CD3CEµ antigen (Creative Biomart)
Sequence (P07766 23-126): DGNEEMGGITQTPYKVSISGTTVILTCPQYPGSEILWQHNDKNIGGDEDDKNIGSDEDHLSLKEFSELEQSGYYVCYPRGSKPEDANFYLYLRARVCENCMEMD
assay.summary: BLI (ForteBio BLItz); biotinylated CD3 antigen on streptavidin biosensor, scFv dilution series in solution
assay.metric: pKd
Recall that pKd is obtained by taking minus log10 of the concentration measured in molar.

Problem: Suppose we examine the binder CD3.24 scFv (scFv) scFv: ELVVTQEPSLTVSPGGTVTLTCRSSNGEVTTSNYANWVQQKPGQAPRGLIGGTIKRAPGTPARFSGSLLGGKAALTLSGVQPEDEAVYYCALWYPNLWVFGGGTKLTVLGATPPETGAETESPGETTGGSAESEPPGEGEVQLLESGGGIVQPGGSLKLSCAASGFTFNTYAMNWVRQAPGKGLEWVARIRSKYNNYATYYADSVKDRFTISRDDSKNTVYLQMNNLKTEDTAVYYCVRHENFGNSYVSWFAHWGQGTLVTVSS ; what pKd value has been reported?
Solution: 6.53
